Test system: Saccharomyces cerevisiae growth inhibition, permissive control
ASSAY OVERVIEW: yeast lifespan-shortening chemical project counter-assay, dose-response inhibition of growth under permissive conditions (AID 850);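 also: growth read as optical density after one day of incubation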
Activity calls are given as the source filed them. No rule for the calls is given here.
Outcome codes: class 1 (active), class 0 (inactive)

{"MOLECULE": "COc1ccc(-c2cc3nc(C)cc(N4CC(C)CC(C)C4)n3n2)cc1 (stereo not given)", "DISCRETE LABEL": "class 1"}
{"MOLECULE": "N#C/C(=C/c1cn(-c2ccccc2)nc1-c1cccc(OCc2ccc(F)cc2)c1)C(=O)NCCCn1ccnc1", "DISCRETE LABEL": "class 0"}
{"MOLECULE": "CCOC(=O)C(=NC(C)CC)NNc1ccc(Br)cc1 (stereo not given)", "DISCRETE LABEL": "class 1"}
{"MOLECULE": "O=C(c1cc(-c2ccccc2O)on1)N1CCc2ccccc2C1", "DISCRETE LABEL": "class 0"}
{"MOLECULE": "N/C(Cc1ccc(Cl)cc1)=N\\OC(=O)c1ccccc1", "DISCRETE LABEL": "class 1"}

###

Test system: Saccharomyces cerevisiae growth inhibition, permissive control
ASSAY OVERVIEW: yeast lifespan-shortening chemical project counter-assay, dose-response inhibition of growth under permissive conditions (AID 850);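 also: growth read as optical density after one day of incubation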
Active and inactive are the calls of the source. How the calls were made is not given here.
Possible outcomes: active, inactive

{"COMPOUND": "C=CCN1C(=O)/C(=C/c2cccs2)C(=O)NC1=S", "DISCRETE LABEL": "active"}
{"COMPOUND": "C=C(C)COc1ccc(-c2[nH]ncc2-c2ccccc2)c(O)c1", "DISCRETE LABEL": "active"}
{"COMPOUND": "CCOc1cccc(-c2nnc3n2N=C(c2cc(OC)ccc2OC)CS3)c1", "DISCRETE LABEL": "inactive"}
{"COMPOUND": "O=c1cc(-c2ccncc2)oc2ccccc12", "DISCRETE LABEL": "inactive"}
{"COMPOUND": "CCc1nc2ccccc2c(=O)n1NC(=O)c1c(O)c2cccc3c2n(c1=O)CCC3", "DISCRETE LABEL": "inactive"}
{"COMPOUND": "Cc1ccc(C(C[N+](=O)[O-])n2nc(C)cc2C)cc1 (stereo unspecified)", "DISCRETE LABEL": "active"}
{"COMPOUND": "CCc1oc2ccccc2c1C(=O)c1cc(Br)c(O)c(Br)c1", "DISCRETE LABEL": "active"}
{"COMPOUND": "O=C1NC(=S)N(c2ccccc2F)C(=O)/C1=C\\c1cccs1", "DISCRETE LABEL": "active"}
{"COMPOUND": "Cc1oc(-c2ccc3c(c2)OCCO3)cc1C(=O)O", "DISCRETE LABEL": "active"}
{"COMPOUND": "Cc1ccc(Oc2nc(CN3CCOCC3)nc3sc4c(c23)CCC(C)C4)cc1C (stereo unspecified)", "DISCRETE LABEL": "active"}
{"COMPOUND": "CCCCNC(=S)NCc1ccc2c(c1)cc(C)n2C", "DISCRETE LABEL": "inactive"}
{"COMPOUND": "CCOC(=O)C1CCCCN1C(=O)CCc1c(C)nc2cc(-c3ccccc3)nn2c1C (stereo unspecified)", "DISCRETE LABEL": "inactive"}
{"COMPOUND": "Cc1ccc(N/N=C/c2c(O)cc(C)oc2=O)cc1", "DISCRETE LABEL": "active"}
{"COMPOUND": "Cc1ccc(/C(N)=N/OC(=O)c2ccc(Cl)cc2Cl)cc1", "DISCRETE LABEL": "active"}
{"COMPOUND": "Cc1ccc(/C=C/C(=O)c2ccccc(=O)c2O)c(C)c1", "DISCRETE LABEL": "active"}
{"COMPOUND": "CCOc1ccccc1C1CC(c2ccc(Br)cc2)Nc2nc(N)nn21 (stereo unspecified)", "DISCRETE LABEL": "inactive"}
{"COMPOUND": "O=C(O)CCn1cc(/C=C/C(=O)c2ccc(Cl)cc2)c(-c2ccc(Br)cc2)n1", "DISCRETE LABEL": "inactive"}
{"COMPOUND": "CCC(=C(c1ccc(OC)cc1)c1ccc(OC)cc1)c1cn(CC(O)CN2CCN(C)CC2)c2ccccc12 (stereo unspecified)", "DISCRETE LABEL": "active"}
{"COMPOUND": "Cc1cccc(CSc2cccc3cccnc23)c1", "DISCRETE LABEL": "active"}
{"COMPOUND": "NNC(=O)c1ccc(COc2cccc3ccccc23)cc1", "DISCRETE LABEL": "active"}
{"COMPOUND": "Clc1ccc2[nH]c3c(c2c1)CCc1cn[nH]c1-3", "DISCRETE LABEL": "active"}
